- Tested on: HEK-293T
- Experimental details: Antiproliferative activity against human 293T cells incubated for 48 hrs by MTT assay
- Type: cell-based
Measured endpoint: IC50 (µM)

> print(dat)
                            chemical.string  unit.tag  experimental.value
1  NS(=O)(=O)c1ccc(-n2nc(C(=O)N3CCOCC3)cc2-c2cccc(F)c2)cc1        µM                 180
2  COc1cccc(-c2cc(C(=O)N3CCOCC3)nn2-c2ccc(S(N)(=O)=O)cc2)c1        µM                 134
3  NS(=O)(=O)c1ccc(-n2nc(C(=O)OCCN3CCOCC3)cc2-c2ccc(C(F)(F)F)cc2)cc1        µM                 148
4  CCOc1ccc(-c2cc(C(=O)NCCN3CCOCC3)nn2-c2ccc(S(N)(=O)=O)cc2)cc1        µM                 155
5  NS(=O)(=O)c1ccc(-n2nc(C(=O)N3CCSCC3)cc2-c2ccc(Br)cc2)cc1        µM                 197
6  NS(=O)(=O)c1ccc(-n2nc(C(=O)N3CCSCC3)cc2-c2ccccc2)cc1        µM                 164
